Collected protein stability index values appear next to each entry.
B1: ADD1 (parent)
chain: FASDGDSGTCSPLRHSFQKQQREK

- Variants of: B1
- Experiment: protein stability index of a GFP-peptide fusion (GPS, HEK-293T) (PSI 1-6); higher = more stable;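 note: lentivirally expressed fusions sorted by FACS into six bins by GFP to DsRed ratio, PSI derived from sequencing read proportions per bin multiplied by bin number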
- Recorded Conditions: c terminus: a fixed tail appended

Use these answered entries as a reference point.
[[record]]
mutant_label = "H15N"
quantity_measured = "protein stability index"
result = 4.41

[[record]]
mutant_label = "G8T"
quantity_measured = "protein stability index"
result = 3.75

[[record]]
mutant_label = "D4M"
quantity_measured = "protein stability index"
result = 2.54


input: // protein stability index lookup, key: S16C
output: 2.24

input: Recorded protein stability index of Q20A , please.
output: 4.18

input: Form field: reported protein stability index of S11F
output: 3.17

input: Field request: protein stability index | item: G8K
output: 3.57

input: Quick check: protein stability index of R14V ?
output: 3.97
